Test system: lab-adapted and primary HIV-1 isolates
Assay: Multi-cycle infection assay in PBMC (p24 ELISA)
Settings: read-out: IC50 (μm), primary isolate BCF02, (Group 0), co-receptor R5
Measurement Name: IC50

# get_value(readout= IC50, system= lab-adapted and primary HIV-1 isolates) for Cc1nc(C(NC(=O)C(=O)Nc2ccc(Cl)cc2)C2CCCCN2)sc1CO (stereo not shown) [NBD-09027]
~87 µM

###

Test system: panel of HIV-1 ENV-pseudoviruses (subtype A, A/D, A2/D, A/E, A/G, B, C and D)
Test: microbe, parasite or virus in culture
Assay type: cell-based
Settings: subtype A, ENV BG505-T332N; read-out: IC50 (μM) ± S.D.
Measurement Name: IC50

# IC50 lookup, item Cc1ccc(-c2ccc(C(=O)NC(CN)c3ncc(CO)s3)[nH]2)cc1F (single isomer, unassigned) [Compound 99]
0.99 µM

###

In this section, each of the compounds is paired with its reported CC50.
Tested on: TZM-bl cells
Assay: Cytotoxicity in TZM-bl cells (XTT)
Format: cell-based
Conditions: XTT, 3 days
# number only, unit µM dropped from output

Below are worked cases with known answers.
>>> numeric_readout("CC(C)(N)C(NC(=O)c1ccc(-c2ccc(Cl)c(F)c2)[nH]1)c1ncc(CO)s1 (single isomer, unassigned)")
16.3
>>> numeric_readout("CNCC(NC(=O)c1ccc(-c2ccc(Cl)c(F)c2)[nH]1)c1ncc(CO)s1 (single isomer, unassigned) [Compound 115]")
17.3

# CC50 lookup, item Cc1ccc(-c2ccc(C(=O)NC(c3nc(C)c(CO)[nH]3)C3CCCCN3)[nH]2)cc1F (single isomer, unassigned)
34

###

Test system: TZM-bl cells
Test: Cytotoxicity in TZM-bl cells (XTT)
Format: cell-based
Details: XTT, 3 days
Measurement Name: CC50

>>> result("Cc1nc(C(CN)NC(=O)c2cnc(-c3ccc(Cl)cc3)[nH]2)sc1CO (single isomer, unassigned) [Compound 94]")
"> 51 µM"
>>> result("Cc1nc(C(NC(=O)c2ccc(-c3ccc(Cl)cc3)[nH]2)C2CCCCN2)[nH]c1CO (single isomer, unassigned) [Compound 34]")
"34 µM"
>>> result("Cc1ccc(-c2ccc(C(=O)NC(CCN(C)C)c3nc(C)c(CO)s3)[nH]2)cc1F (single isomer, unassigned) [Compound 73]")
"37.1 µM"

# CC50 lookup, item Cc1cc(-c2ccc(Cl)cc2)[nH]c1C(=O)NC(CN)c1nc(C)c(CO)s1 (single isomer, unassigned) [Compound 69]
27.2 µM

# CC50 lookup, item Cc1nc(C(NC(=O)c2ccc(-c3ccc(Cl)cc3)[nH]2)C(C)(C)N)sc1CO (single isomer, unassigned) [Compound 110]
20.6 µM

# CC50 lookup, item NCC(NC(=O)c1ccc(-c2ccc(Cl)c(F)c2)[nH]1)c1ncc(CO)s1 (single isomer, unassigned) [Compound 102]
31.8 µM

###

In this section, each of the compounds is paired with its reported CC50.
Tested on: TZM-bl cells
Assay: Cytotoxicity in TZM-bl cells (XTT)
Format: cell-based
Conditions: XTT, 3 days

Below are worked cases with known answers.
>>> result("Cc1nc(C(CN(C)C)NC(=O)c2ccc(-c3ccc(Cl)c(F)c3)[nH]2)sc1CO (single isomer, unassigned)")
"~29 µM"
>>> result("CNCC(NC(=O)c1ccc(-c2ccc(Cl)c(F)c2)[nH]1)c1nc(C)c(CO)s1 (single isomer, unassigned)")
"~20 µM"

Below: the item to evaluate.
# CC50 lookup, item Cc1nc(C(CN)NC(=O)c2ccc(-c3ccc(Cl)cc3)[nH]2)sc1CO (single isomer, unassigned)
~40 µM

All values here come from patent US11059808B2.
